- SUBJECT_OF_TEST: FLuc-C-HiBiT (Photinus pyralis, UniProt P08659)
- Construct: firefly luciferase with C-terminal HiBiT tag, E. coli expressed
- Sequence (P08659 whole entry, looked up): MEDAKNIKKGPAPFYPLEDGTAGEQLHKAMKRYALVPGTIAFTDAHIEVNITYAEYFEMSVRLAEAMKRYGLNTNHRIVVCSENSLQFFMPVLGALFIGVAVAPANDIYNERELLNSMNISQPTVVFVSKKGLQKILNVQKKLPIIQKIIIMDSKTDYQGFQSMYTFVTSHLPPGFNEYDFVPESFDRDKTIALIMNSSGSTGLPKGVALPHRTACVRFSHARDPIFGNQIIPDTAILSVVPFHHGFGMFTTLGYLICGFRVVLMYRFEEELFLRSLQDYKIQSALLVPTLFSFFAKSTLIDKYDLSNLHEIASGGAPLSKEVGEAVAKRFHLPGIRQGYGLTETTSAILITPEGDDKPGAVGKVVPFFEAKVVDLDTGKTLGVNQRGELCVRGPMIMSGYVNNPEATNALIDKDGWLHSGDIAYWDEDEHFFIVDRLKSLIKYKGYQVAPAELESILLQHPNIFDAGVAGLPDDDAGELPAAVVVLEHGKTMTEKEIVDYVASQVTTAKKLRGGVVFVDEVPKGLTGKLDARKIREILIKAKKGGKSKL
- EXPERIMENT_SUMMARY: biochemical
- EXPERIMENTAL_PARAMETERS: enzyme activity, 10 uM ATP; read-out: IC50 or SDR50 (mM) / FLuc E
READOUT_LABEL: IC50 (mM)

Request: Bench note: what IC50 did Cc1cc(-c2cccc(COc3ccc4c(cnn4CC[S+](C)(=O)[O-])c3)c2)ccn1 show?
Response: 0.018

Request: Here is the next molecule: COCC(C)Nc1ncnc2c1cnn2-c1cccc(Cl)c1 (centres unmarked)
Response: 0.0111

[1] Cc1ccc(-c2ncc(NC(=O)c3ccccc3F)cn2)cc1
[2] O=C(NCc1ccoc1)c1ccc2nc(-c3ccc(F)cc3)cn2c1
Request: Returns: the argument ( 1 or 2 ) having the larger IC50. To answer, give the label that identifies your chosen option.
Response: 2

[P] CC(C)n1cc2cc(C(=O)Nc3ccc4c(c3)OCCO4)sc2c1
[Q] CCOc1ccc2nc(NC(=O)c3ccccc3)sc2c1
Request: Field: lower IC50 | Options: P / Q Returns: label corresponding to the selected item.
Response: Q
(Q: 0.000881 mM, P: 0.00989 mM)

[1] CN(Cc1ccco1)C(=O)c1cccc2c1CCN2C(=O)Nc1ccccc1
[2] C[S+](=O)([O-])Nc1ccc(-c2nc3ccccc3s2)cc1
Request: Hi there! Just curious which has the higher IC50 between 1 and 2 . Respond with the label that goes with your answer.
Response: 2

----------
- SUBJECT_OF_TEST: FLuc-C-NLuc (firefly luciferase) (Photinus pyralis, UniProt P08659, form not given/L550V)
- Sequence (P08659 2-550 L550V, form open): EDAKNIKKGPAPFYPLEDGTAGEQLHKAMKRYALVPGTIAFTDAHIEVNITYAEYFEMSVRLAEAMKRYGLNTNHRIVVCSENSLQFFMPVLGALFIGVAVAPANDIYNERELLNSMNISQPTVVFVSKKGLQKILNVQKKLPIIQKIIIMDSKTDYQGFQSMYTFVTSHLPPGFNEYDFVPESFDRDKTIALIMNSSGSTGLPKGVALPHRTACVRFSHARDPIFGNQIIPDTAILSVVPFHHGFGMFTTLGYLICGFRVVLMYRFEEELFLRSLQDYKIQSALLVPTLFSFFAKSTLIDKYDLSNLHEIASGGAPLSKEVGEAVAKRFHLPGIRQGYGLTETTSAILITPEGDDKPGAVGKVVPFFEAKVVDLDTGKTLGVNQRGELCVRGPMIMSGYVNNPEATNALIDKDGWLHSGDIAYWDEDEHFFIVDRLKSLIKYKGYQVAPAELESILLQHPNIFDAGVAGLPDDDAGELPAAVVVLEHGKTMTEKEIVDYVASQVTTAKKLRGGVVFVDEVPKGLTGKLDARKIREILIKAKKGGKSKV
- EXPERIMENT_SUMMARY: SDR assay, FLuc-C-NLuc
- EXPERIMENTAL_PARAMETERS: 1 nM FLuc-C-NLuc; normalized activity; Log [Compound], M -5.44
READOUT_LABEL: SDR No ATP

Consider the reported SDR No ATP for these compounds:
Request: Sample Fc1ccc(-c2cn3cc(Cc4ccccc4)sc3n2)cc1 — what was its SDR No ATP?
Response: 16.1

Request: Item: COc1ccc(-c2nc(-c3ccc(C(=O)O)cc3)no2)cc1
Response: 12.3

Request: What do you get for CC1CCCN(c2ncnc3c2cnn3-c2ccccc2)C1 (centres unmarked) ?
Response: 19.9

Request: What about this compound? CC(CNC(=O)C1CCN(C(=O)c2ncn3c2COC(c2ccccc2)C3)CC1)c1ccccc1 (centres unmarked)
Response: -1.5

Request: O=C(O)c1cccc2c1CCN2C(=O)Nc1ccc(F)cc1 ?
Response: 22.3

[A] Cc1ccc(-n2ncc3c(N4CCCCCC4)ncnc32)cc1
[B] CNC(=O)c1cccc2c1CCN2C(=O)Nc1ccc(C)cc1
[C] O=C(O)CCSc1nnc(-c2ccc(Cl)cc2Cl)o1
Request: Let's sort these by SDR No ATP, smallest first. Go ahead? The labels, placed in the requested order, form the answer.
Response: C, B, A

----------
- SUBJECT_OF_TEST: P. pyralis FLuc (Photinus pyralis)
- Sequence (P08659 whole entry): as the sequence (P08659 whole entry, looked up) above
- EXPERIMENT_SUMMARY: FLuc enzymatic luminescence assay, P. pyralis FLuc
- Type: biochemical
- EXPERIMENTAL_PARAMETERS: FLuc enzymatic assay; Clade S follow-up
READOUT_LABEL: Efficacy (%) FLuc E
The reply should contain only the number, in %.

Request: State its Efficacy (%) FLuc E on P. pyralis FLuc (Photinus pyralis): O=C(Nc1ccc(Cl)cc1)C1CCN(C(=O)c2ncn3c2COC(c2ccccc2)C3)CC1 (stereo not shown)
Response: -91.81

***
Request: For P. pyralis FLuc (Photinus pyralis), provide Efficacy (%) FLuc E of Cc1cc(C)cc(NC(=O)C2CCN(C(=O)c3ncn4c3COC(c3ccccc3)C4)CC2)c1 (stereo not shown) please.
Response: -86.91

Request: Also need Cc1ccc(C2Cn3cnc(C(=O)N4CCC(C(=O)NCc5cccc(F)c5)CC4)c3CO2)cc1 (stereo not shown) , thanks.
Response: -43.90

Request: Now this one: Cc1ccc(C2Cn3cnc(C(=O)N4CCC(C(=O)NCc5ccccc5C)CC4)c3CO2)cc1 (stereo not shown)
Response: -44.97

All figures here come from paper PMC12064818.
